Cited source: PubChem BioAssay (EPA / NIEHS)

assay: BSK_BE3C_SRB: Viability Assessment in the BioMAP Diversity Plus: BE3C Assay (AID 2283028); conditions: primary human bronchial epithelial cells;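 also: measured 24 h after chemical dosing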
Activity calls are given as the source filed them. The calls were made as follows: active = hit-call score of the fitted dose curve at least 0.9, where 1 is the maximum; inactive = score below 0.9.
METRIC: outcome

                                    compound  reported_result
 0  C=CC(=O)OCCC(F)(F)C(F)(F)C(F)(F)C(F)(F)F         inactive
 1  OCC(F)(F)C(F)(F)C(F)(F)C(F)(F)C(F)(F)C(F)(F)C(F)(F)C(F)(F)CO         inactive
 2                                 Cc1cnccn1         inactive
 3  OCC(F)(F)C(F)(F)C(F)(F)C(F)(F)C(F)(F)C(F)(F)CO         inactive
 4  CCN=C1C=CC(=C(c2ccc(N(CC)CC)cc2)c2ccc(N(CC)CC)cc2)c2ccccc21         inactive
 5  OCC(O)CC(F)(F)C(F)(F)C(F)(F)C(F)(F)C(F)(F)C(F)(F)C(F)(F)C(F)(F)F (configuration not stated)         inactive
 6              Nc1cc([N+](=O)[O-])cc(Cl)c1O         inactive
 7              CCN(CC)c1ccc(N=Nc2ccccc2)cc1         inactive
 8                   NC(O)(C(F)(F)F)C(F)(F)F         inactive
 9  O=C1c2c(O)ccc(Nc3ccc(CCO)cc3)c2C(=O)c2c([N+](=O)[O-])ccc(O)c21         inactive
10              Cc1ccc(O)c(-n2nc3ccccc3n2)c1         inactive
11  O=S(=O)(O)CCC(F)(F)C(F)(F)C(F)(F)C(F)(F)F         inactive
12   C=C(C)C(=O)OCC(F)(F)C(F)(F)C(F)(F)C(F)F         inactive
13  O=C(O)C(F)(F)C(F)(F)C(F)(F)OC(F)(C(F)(F)F)C(F)(F)F         inactive
14  CCN(CC)c1ccc2c(c1)Oc1cc(N(CC)CC)ccc1C21OC(=O)c2ccccc21         inactive
15  O=C(O)C(F)(F)C(F)(F)C(F)(F)C(F)(F)C(F)(F)C(F)(F)C(F)F         inactive
16  O=C(O)C(F)(F)OC(F)(F)C(F)(F)OC(F)(F)C(F)(F)OC(F)(F)F         inactive

====

target: Ratio of Nucleoli Translocation and Cytoplasm, AR (gene 367); assay: UPITT_HCI_U2OS_AR_TIF2_Nucleoli_Cytoplasm_Ratio_Antagonist: University of Pittsburgh U2OS Androgen Receptor-Transcriptional Intermediary Factor 2 (AR-TIF2) Antagonism High Content Imaging Assay for Ratio of Nucleoli Translocation and Cytoplasm (AID 2283999);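 also: antagonists lower the DHT-driven ratio of nucleolar to cytoplasmic red signal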
Inconclusive results are not listed. The source made the active and inactive calls. How the source made its calls: active means hit-call score of the fitted dose curve at least 0.9, where 1 is the maximum; inconclusive means response in the unintended direction; inactive means score below 0.9.
METRIC: AC50

                                   compound   reported_result
0  C[C@]12CC[C@H]3C(=CCc4cc(O)ccc43)[C@@H]1CCC2=O  3.04 µM (active)
1  CCCCCCCC/C=C\CCCCCCCC(=O)OCC(O)CO (centres undefined)          inactive
2  CCN=C1C=CC(=C(c2ccc(N(CC)CC)cc2)c2ccc(N(CC)CC)cc2)c2ccccc21   4.7 µM (active)
3                   CCCCCCCCCc1ccc(OCCO)cc1          inactive
